# Method Notes: acute toxicity in mice
# Experimental Setup: mouse, in vivo, po, per os, read-out: LD 50 per os
Endpoint Name: LD50

Field request: LD50 | item: CCN(CC)CCNC(=O)c1cc(Cl)c(NC2=NCCN2)cc1OC 165 to 180 mg/kg

* * *

# Method Notes: solubility in water
# Type: physicochemical
# Experimental Setup: hydrochloride prepared for immediate use, read-out: soluble in water, hydrochloride
Endpoint Name: solubility (mg/mL)
Give bare numbers, in mg/mL.

Fill blank: measured solubility of the molecule C=CCOc1cc(NC2=NCCN2)c(Cl)cc1C(=O)NCCN(CC)CC is ____. 200

* * *

# Method Notes: acute toxicity in mice
# Experimental Setup: mouse, in vivo, sc, read-out: LD 50 s.c.
Endpoint Name: LD50

LD50 for CCN(CC)CCNC(=O)c1cc(Cl)c(NC2=NCCN2)cc1OC [Example I] ? 52 to 54 mg/kg
